# subject-of-test: δ-opioid receptors (Rattus norvegicus, UniProt P33533)
# Construct: assayed with a rat brain synaptosomal preparation (P2); from tissue; host or cells: rat brain P2 synaptosomes
# Sequence (P33533 whole entry): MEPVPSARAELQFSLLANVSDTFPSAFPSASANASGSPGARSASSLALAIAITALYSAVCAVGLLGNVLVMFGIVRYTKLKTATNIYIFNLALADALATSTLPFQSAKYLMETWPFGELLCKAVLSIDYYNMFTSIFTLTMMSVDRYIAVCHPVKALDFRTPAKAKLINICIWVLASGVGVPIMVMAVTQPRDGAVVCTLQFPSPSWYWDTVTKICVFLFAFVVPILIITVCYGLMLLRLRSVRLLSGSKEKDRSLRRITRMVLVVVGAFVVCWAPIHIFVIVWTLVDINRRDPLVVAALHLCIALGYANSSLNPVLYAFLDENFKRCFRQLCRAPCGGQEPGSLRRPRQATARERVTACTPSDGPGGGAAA
# assay-overview: Rat brain synaptosome (P2) binding, agonist [3H]DPDPE (Example 47)
# measurement-conditions: rat brain synaptosomes (P2); mean ± SEM, n in parentheses; read-out: Kiδ(nM) [^3H]DPDPE
Non-standard residues stand in square brackets, D forms with d. Residues, ends and D or L forms follow the SMILES beside them. *: point of attachment. Dmt = Cc1cc(O)cc(C)c1C[C@H](N)C(=O)O; Tic = O=C(O)[C@@H]1Cc2ccccc2CN1; NHtBu = CC(C)(C)N*
Field 'label' (enum: criterion met / criterion not met). Set to criterion met when Ki is strictly under 1 nM; else criterion not met.

{"compound": "Cc1cc(O)cc(C)c1CC(CN)C(=O)N1Cc2ccccc2C[C@H]1C(=O)O (stereo partly drawn) [Compound 2, H-αDmt-Tic-OH]", "subject-of-test": "δ-opioid receptors (Rattus norvegicus, UniProt P33533)", "qualitative-label": "criterion not met"}
{"compound": "Cc1cc(O)cc(C)c1C[C@H](N)C(=O)N1Cc2ccccc2C[C@H]1CC(=O)O [Compound 1, H-Dmt-βTic-OH]", "subject-of-test": "δ-opioid receptors (Rattus norvegicus, UniProt P33533)", "qualitative-label": "criterion met"}
{"compound": "Cc1cc(O)cc(C)c1C[C@H](N)C(=O)N1Cc2ccccc2C[C@H]1C(=O)NC(C)(C)C [Compound 9, H-Dmt-Tic-NH-tBu] (H-[Dmt]-[Tic]-NHtBu)", "subject-of-test": "δ-opioid receptors (Rattus norvegicus, UniProt P33533)", "qualitative-label": "criterion met"}
{"compound": "Cc1cc(O)cc(C)c1C[C@@H](C(=O)N1Cc2ccccc2C[C@H]1C(=O)O)N1CCCC1 [Compound 4, [des-NH2-α-pyrrolidine-1-yl]-Dmt-Tic-OH]", "subject-of-test": "δ-opioid receptors (Rattus norvegicus, UniProt P33533)", "qualitative-label": "criterion not met"}

----------
# subject-of-test: δ receptors (Mus musculus, UniProt P32300)
# Sequence (P32300 whole entry): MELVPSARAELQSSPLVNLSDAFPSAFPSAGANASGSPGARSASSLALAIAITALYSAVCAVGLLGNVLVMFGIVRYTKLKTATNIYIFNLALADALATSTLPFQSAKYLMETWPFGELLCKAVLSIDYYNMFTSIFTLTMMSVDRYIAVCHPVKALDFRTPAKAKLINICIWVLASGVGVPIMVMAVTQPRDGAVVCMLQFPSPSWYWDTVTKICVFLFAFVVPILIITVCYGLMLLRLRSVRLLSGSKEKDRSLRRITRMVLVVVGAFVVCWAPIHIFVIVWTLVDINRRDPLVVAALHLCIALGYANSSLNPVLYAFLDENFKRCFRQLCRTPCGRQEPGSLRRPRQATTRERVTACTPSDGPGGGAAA
# measurement-conditions: MVD Ke(nM), δ antagonism; Ke = antilog of pA2
Non-standard residues stand in square brackets, D forms with d. Residues, ends and D or L forms follow the SMILES beside them. Dmt = Cc1cc(O)cc(C)c1C[C@H](N)C(=O)O; Tic = O=C(O)[C@@H]1Cc2ccccc2CN1
Reported Kb values for the following compounds.

{"compound": "Cc1cc(O)cc(C)c1C[C@H](N)C(=O)N1Cc2ccccc2C[C@@H]1C(=O)NC12CC3CC(CC(C3)C1)C2", "Kb": "> 10000 nM"}
{"compound": "Cc1cc(O)cc(C)c1C[C@H](N)C(=O)N1Cc2ccccc2C[C@H]1C(=O)NC12CC3CC(CC(C3)C1)C2", "Kb": "> 10000 nM"}
{"compound": "CNC(=O)[C@@H]1Cc2ccccc2CN1C(=O)[C@@H](N)Cc1c(C)cc(O)cc1C [Compound 7, H-Dmt-Tic-NHMe] (H-[Dmt]-[Tic]-NHMe)", "Kb": "> 10000 nM"}
